assay: qHTS for Inhibitors of the Functional Ribonucleoprotein Complex (vRNP) of Lymphocytic Choriomeningitis Arenaviruses (LCMV): Viability assay - alamar blue signal for LCMV Primary Screen (AID 1347085); settings: alamar blue viability counter-screen, LCMV vRNP screen cells; series mostly up to 57.5 µM; note: nearly all actives have a fitted effect of over 80% in size
Inconclusive results are not listed. The source made the active and inactive calls. Calls come from the whole dose curve; tested in HEK293 reporter line.
Form entry, call: pick from active, inactive

Would you please look over these solved cases?
{"molecule": "CCN(CC)C(=O)Nc1ccc(OCC(O)CNC(C)(C)C)c(C(C)=O)c1 (configuration not stated)", "label.class": "inactive"}
{"molecule": "CC1CCCCN1CCCOC(=O)c1ccc(OC2CCCCC2)cc1 (configuration not stated)", "label.class": "inactive"}
{"molecule": "O=C(c1ccc(F)cc1)C1CCN(CCn2c(=S)[nH]c3ccccc3c2=O)CC1", "label.class": "inactive"}
{"molecule": "COc1ccnc2c1CCCCC2S(=O)c1nc2ccccc2[nH]1 (configuration not stated)", "label.class": "inactive"}
{"molecule": "ClC1=C(Cl)C2(Cl)C(CBr)CC1(Cl)C2(Cl)Cl (configuration not stated)", "label.class": "inactive"}

Prompt line: Dear all, I need the recorded test outcome for "CC(C)(C)OC(=O)c1ncn2c1[C@@H]1CCCN1C(=O)c1c(Br)cccc1-2" , thank you.
Response line: inactive

Prompt line: Dear all, I need the recorded test outcome for CCN(CC)CCOC(=O)C(c1ccccc1)C1CCCCC1 (configuration not stated) , thank you.
Response line: inactive

Prompt line: Dear all, I need the recorded test outcome for "CN1CCN(c2cc3c(nn2)Oc2ccccc2N3C)CC1" , thank you.
Response line: inactive

Prompt line: Dear all, I need the recorded test outcome for "O=C1NCN(c2ccccc2)C12CCN(CCCOc1ccc(F)cc1)CC2" , thank you.
Response line: inactive

Prompt line: Dear all, I need the recorded test outcome for C[N+]1(CC2COC(c3ccccc3)(C3CCCCC3)O2)CCCCC1 (configuration not stated) , thank you.
Response line: inactive

Prompt line: Dear all, I need the recorded test outcome for "CNC(=O)c1cnn(-c2nc(N)c3ncn([C@@H]4O[C@H](CO)[C@@H](O)[C@H]4O)c3n2)c1" , thank you.
Response line: inactive

Prompt line: Dear all, I need the recorded test outcome for "COc1ccc(OC(=O)N(CC(=O)O)Cc2ccc(OCCc3nc(-c4ccccc4)oc3C)cc2)cc1" , thank you.
Response line: inactive

Prompt line: Dear all, I need the recorded test outcome for "O=C(Cn1ccnc1[N+](=O)[O-])NCCO" , thank you.
Response line: inactive

Prompt line: Dear all, I need the recorded test outcome for "NCc1cccnc1" , thank you.
Response line: inactive

Prompt line: Dear all, I need the recorded test outcome for Clc1ccc(CSC(Cn2ccnc2)c2ccc(Cl)cc2Cl)cc1 (configuration not stated) , thank you.
Response line: inactive

Prompt line: Dear all, I need the recorded test outcome for "Cc1ncc(COP(=O)(O)O)c(C=O)c1O" , thank you.
Response line: inactive

Prompt line: Dear all, I need the recorded test outcome for "CCC(=O)OC1(c2ccccc2)CCN(C)CC1" , thank you.
Response line: inactive

Prompt line: Dear all, I need the recorded test outcome for Cc1ccc(Cl)c(OCC(O)CNC(C)(C)C)c1 (configuration not stated) , thank you.
Response line: inactive

Prompt line: Dear all, I need the recorded test outcome for Cc1ccc2c(c1)c1c3n2CCNC3CCC1 (configuration not stated) , thank you.
Response line: inactive

Prompt line: Dear all, I need the recorded test outcome for "CCOC(=O)c1cc(=O)c2c(OCC(COc3cccc4oc(C(=O)OCC)cc(=O)c34)OC(=O)[C@@H](N)CCCCN)cccc2o1" , thank you.
Response line: inactive

Prompt line: Dear all, I need the recorded test outcome for "CCCOc1ccc2nc(NC(=O)OC)[nH]c2c1" , thank you.
Response line: active

Prompt line: Dear all, I need the recorded test outcome for COc1ccc(OC)c(CC(C)N)c1 (configuration not stated) , thank you.
Response line: inactive

Origin of the recorded values: PubChem BioAssay (NCATS)
